# Tested on: Escherichia coli TOP10
# experiment: shrunken log2 fold change of peptide-encoding DNA abundance (4.5 h post-induction vs induction); higher = less antimicrobial activity (less host growth inhibition)
# conditionDescription: time post-induction: 4.5 h; library: site-saturation at positions 5, 18, 19, 20
# key: entry, value: shrunken log2 fold change
API note: the answer field is a bare number with no unit suffix.

Known shrunken log2 fold change results, listed for orientation:
RRIRNRPPRLPRPRPRPKSYPRP	-0.0423
RRIRDRPPRLPRPRPRPNNPPRP	-0.357
RRIRCRPPRLPRPRPRPCGLPRP	0.0617
RRIRFRPPRLPRPRPRPCLDPRP	-0.35
RRIRKRPPRLPRPRPRPEKCPRP	0.0317
RRIRQRPPRLPRPRPRPMAVPRP	0.00724
RRIRCRPPRLPRPRPRPFGEPRP	-0.282
RRIRNRPPRLPRPRPRPFYPPRP	-0.5
RRIRFRPPRLPRPRPRPHKGPRP	-0.0598
RRIRNRPPRLPRPRPRPYRWPRP	-0.147

Request: Kindly state the measured shrunken log2 fold change obtained for `RRIRKRPPRLPRPRPRPFDNPRP` with Escherichia coli TOP10.
Result: 0.057

Request: Kindly state the measured shrunken log2 fold change obtained for `RRIRLRPPRLPRPRPRPIERPRP` with Escherichia coli TOP10.
Result: -0.155

Request: Kindly state the measured shrunken log2 fold change obtained for `RRIRYRPPRLPRPRPRPDIDPRP` with Escherichia coli TOP10.
Result: -0.172

Request: Kindly state the measured shrunken log2 fold change obtained for `RRIRGRPPRLPRPRPRPIFYPRP` with Escherichia coli TOP10.
Result: 0.0354

Request: Kindly state the measured shrunken log2 fold change obtained for `RRIRDRPPRLPRPRPRPKWNPRP` with Escherichia coli TOP10.
Result: -0.159

Request: Kindly state the measured shrunken log2 fold change obtained for `RRIRCRPPRLPRPRPRPENLPRP` with Escherichia coli TOP10.
Result: -0.0208

###

# key: entry, value: shrunken log2 fold change
# Test system: Escherichia coli TOP10
# experiment: shrunken log2 fold change of peptide-encoding DNA abundance (4.5 h post-induction vs induction); higher = less antimicrobial activity (less host growth inhibition)
# conditionDescription: time post-induction: 4.5 h; library: site-saturation at positions 5, 18, 19, 20
API note: the answer field is a bare number with no unit suffix.

Known shrunken log2 fold change results, listed for orientation:
RRIRLRPPRLPRPRPRPEDCPRP	0.0408
RRIRLRPPRLPRPRPRPGCAPRP	0.444
RRIRFRPPRLPRPRPRPFNQPRP	-0.161

Request: Entry `RRIRWRPPRLPRPRPRPMIEPRP` has what shrunken log2 fold change?
Result: 0.0215

Request: Entry `RRIRRRPPRLPRPRPRPFFLPRP` has what shrunken log2 fold change?
Result: 0.0467

Request: Entry `RRIRYRPPRLPRPRPRPQYWPRP` has what shrunken log2 fold change?
Result: -0.696

Request: Entry `RRIRARPPRLPRPRPRPILEPRP` has what shrunken log2 fold change?
Result: -0.0126

Request: Entry `RRIRRRPPRLPRPRPRPQKRPRP` has what shrunken log2 fold change?
Result: 0.13

###

# Test system: Escherichia coli TOP10;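 further: peptides expressed intracellularly from a pBAD plasmid library in pooled LB shake-flask culture, induced with 0.3% L-arabinose, DNA abundance read by NGS, three biological replicates, DESeq2 with apeglm shrinkage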
# experiment: shrunken log2 fold change of peptide-encoding DNA abundance (4.5 h post-induction vs induction); higher = less antimicrobial activity (less host growth inhibition)
# conditionDescription: time post-induction: 4.5 h; library: site-saturation at positions 5, 18, 19, 20
Each record's shrunken log2 fold change is compared with class 1: < -0.2; class 2: ≥ -0.2 and < 0.1; class 3: ≥ 0.1 to give its class.

RRIRYRPPRLPRPRPRPALVPRP	class 3
RRIRVRPPRLPRPRPRPFWWPRP	class 3
RRIRSRPPRLPRPRPRPRWEPRP	class 3

Request: Category of `RRIRERPPRLPRPRPRPNWKPRP` , please.
Result: class 2

Request: Category of `RRIRKRPPRLPRPRPRPYGFPRP` , please.
Result: class 1

Request: Category of `RRIRSRPPRLPRPRPRPDVAPRP` , please.
Result: class 3
